Just for reference, patent US20160208004A1 is where these values come from.

Target: human IL-17RA (human, UniProt Q96F46 33-866)
Measurement Notes: cell-based or functional assay
Attribute Measured: % Inhib. of IL-5 production, TSLP treated human PBMC + IL-2 + IL-25, Expt. 1 (%)
Numbers only, in %.

Query: // % Inhib. of IL-5 production, TSLP treated human PBMC + IL-2 + IL-25, Expt. 1 lookup, key: 4.393.1 (antibody, V domains shown) VH: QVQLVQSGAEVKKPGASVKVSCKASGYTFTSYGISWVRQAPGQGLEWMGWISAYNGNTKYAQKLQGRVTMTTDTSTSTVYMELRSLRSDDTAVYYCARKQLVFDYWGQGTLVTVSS VL: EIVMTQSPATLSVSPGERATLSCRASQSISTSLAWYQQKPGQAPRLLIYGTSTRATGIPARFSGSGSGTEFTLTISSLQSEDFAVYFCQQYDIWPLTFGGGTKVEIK
Result: 28
